Target: human ether-à-go-go-related gene (hERG) potassium channel (human)
Sequence (Q12809 whole entry, looked up): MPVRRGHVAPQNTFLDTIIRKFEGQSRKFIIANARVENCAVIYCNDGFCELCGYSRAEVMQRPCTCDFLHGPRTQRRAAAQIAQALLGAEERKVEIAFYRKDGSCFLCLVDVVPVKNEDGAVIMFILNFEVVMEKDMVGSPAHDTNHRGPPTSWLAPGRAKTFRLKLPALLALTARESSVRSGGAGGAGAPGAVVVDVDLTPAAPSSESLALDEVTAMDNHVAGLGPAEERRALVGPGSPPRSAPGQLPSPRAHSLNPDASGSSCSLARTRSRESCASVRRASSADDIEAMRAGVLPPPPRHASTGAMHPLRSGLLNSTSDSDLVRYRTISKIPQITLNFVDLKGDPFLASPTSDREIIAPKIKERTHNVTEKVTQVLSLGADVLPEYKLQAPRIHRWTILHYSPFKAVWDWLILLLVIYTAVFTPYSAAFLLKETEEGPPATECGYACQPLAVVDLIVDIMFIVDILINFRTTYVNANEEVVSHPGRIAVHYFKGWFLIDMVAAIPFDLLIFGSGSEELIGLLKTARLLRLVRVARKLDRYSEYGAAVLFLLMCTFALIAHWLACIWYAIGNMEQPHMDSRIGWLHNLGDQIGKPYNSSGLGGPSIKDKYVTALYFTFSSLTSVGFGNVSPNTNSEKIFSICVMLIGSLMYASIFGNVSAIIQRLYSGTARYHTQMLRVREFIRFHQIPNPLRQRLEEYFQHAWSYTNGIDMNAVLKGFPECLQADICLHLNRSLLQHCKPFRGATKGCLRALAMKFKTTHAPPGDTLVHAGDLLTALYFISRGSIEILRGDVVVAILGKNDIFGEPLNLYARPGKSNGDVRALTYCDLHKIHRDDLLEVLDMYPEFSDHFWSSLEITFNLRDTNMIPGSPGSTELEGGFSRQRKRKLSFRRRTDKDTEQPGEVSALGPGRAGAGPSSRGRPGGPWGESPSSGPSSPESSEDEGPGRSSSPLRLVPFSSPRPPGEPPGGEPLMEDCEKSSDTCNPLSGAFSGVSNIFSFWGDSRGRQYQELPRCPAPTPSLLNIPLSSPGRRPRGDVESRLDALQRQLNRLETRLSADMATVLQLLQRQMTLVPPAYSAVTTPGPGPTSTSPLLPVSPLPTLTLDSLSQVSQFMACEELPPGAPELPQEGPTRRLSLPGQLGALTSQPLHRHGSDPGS
Experiment: primary screen, population patch clamp on CHO cells stably expressing hERG; higher = less effect of the substance
Description: Briefly, Chinese hamster ovary (CHO) cells stably expressing the hERG channel were dislodged from tissue culture flasks and dispensed into PPC plates. […] Small molecule effects on hERG current density were quantified by […].
About 2,200 (0.71%) of roughly 310,000 compounds showed an effect of 50% or more. Effects have a minus sign here. Shown is part of a subset that was picked to be rich in strong results.
Observation Type: hERG current change (%, negative = inhibition) at 1uM

compound=C/C(=N\NC(=O)CN1CCN(Cc2ccccc2)CC1)c1ccncc1 assayed_system="human ether-à-go-go-related gene (hERG) potassium channel (human)" result=-3.1%
compound="COC(=O)c1ccc(CN2CCCC(C(=O)c3cc(F)ccc3OC)C2)cc1 (stereo not shown)" assayed_system="human ether-à-go-go-related gene (hERG) potassium channel (human)" result=-8.3%
compound=Cc1ccc(C)c(CN2C(=O)CSc3ccc(C(=O)N4CCCC4)cc32)c1 assayed_system="human ether-à-go-go-related gene (hERG) potassium channel (human)" result=5.65%
compound=C/C(=N\NC(=O)CN1CCN(Cc2ccccc2)CC1)c1cccs1 assayed_system="human ether-à-go-go-related gene (hERG) potassium channel (human)" result=-2.13%
compound=O=C(O)c1cn(Cc2ccccc2)c2ccc(Cl)cc2c1=O assayed_system="human ether-à-go-go-related gene (hERG) potassium channel (human)" result=-84.4%
compound=O=C(Nc1ccc(Cl)cc1)Nc1nnc(Cc2ccc([N+](=O)[O-])cc2)s1 assayed_system="human ether-à-go-go-related gene (hERG) potassium channel (human)" result=13.9%
compound="O=C(NN1C(=O)c2ccccc2NC1c1ccc([N+](=O)[O-])o1)c1ccc(Br)cc1 (stereo not shown)" assayed_system="human ether-à-go-go-related gene (hERG) potassium channel (human)" result=-27.2%
compound=COC(=O)Oc1ccc(/C=N/NC(=O)CN(c2ccccc2Cl)S(C)(=O)=O)cc1OC assayed_system="human ether-à-go-go-related gene (hERG) potassium channel (human)" result=9.16%
compound=O=C(CN1CCOCC1)Nc1ccc(Br)cc1C(=O)c1ccccc1 assayed_system="human ether-à-go-go-related gene (hERG) potassium channel (human)" result=-3.67%
compound=O=C(CCN1CCOCC1)Nc1ccc(Br)cc1C(=O)c1ccccc1 assayed_system="human ether-à-go-go-related gene (hERG) potassium channel (human)" result=-0.737%
compound=Cc1ccc(S(=O)(=O)N(C)Cc2ccc(-c3nnc4n3CCC4)cc2)cc1 assayed_system="human ether-à-go-go-related gene (hERG) potassium channel (human)" result=0.889%
compound=O=C(O)c1cn(Cc2ccccc2)c2ccccc2c1=O assayed_system="human ether-à-go-go-related gene (hERG) potassium channel (human)" result=-43.6%
compound=COCCCn1c(C(=O)NCCN2CCOCC2)cc2c(=O)n3cccc(C)c3nc21 assayed_system="human ether-à-go-go-related gene (hERG) potassium channel (human)" result=6.14%
compound="O=C(c1ccc2c(=O)n(CC3CCCO3)c(=S)[nH]c2c1)N1CCN(c2ccccc2)CC1 (stereo not shown)" assayed_system="human ether-à-go-go-related gene (hERG) potassium channel (human)" result=3.81%
compound=O=C(CN1CCN(S(=O)(=O)c2ccc(Br)cc2)CC1)N/N=C/c1ccncc1 assayed_system="human ether-à-go-go-related gene (hERG) potassium channel (human)" result=-51.8%
compound=C/C(=N/NC(=O)CN1CCN(S(=O)(=O)c2ccc(Br)cc2)CC1)c1ccncc1 assayed_system="human ether-à-go-go-related gene (hERG) potassium channel (human)" result=-44.3%
compound=CS(=O)(=O)Nc1ccc(C(=O)NCc2ccco2)cc1 assayed_system="human ether-à-go-go-related gene (hERG) potassium channel (human)" result=16.3%
compound=CC1=C(C)C(=O)N(c2ccccn2)C1=O assayed_system="human ether-à-go-go-related gene (hERG) potassium channel (human)" result=11.4%
compound=CC(=O)/C=C\c1ccccc1OC(=O)c1cc2ccccc2oc1=O assayed_system="human ether-à-go-go-related gene (hERG) potassium channel (human)" result=16.3%

These measurements were taken from paper PMC4336329.
